- Target Under Test: T1, Siglec15-ECD-His (human, UniProt Q6ZMC9 20-263)
- T1 construct: Human Siglec15 (Uniprot Q6ZMC9) extracellular domain with 7 His, expressed in Hek293F; also called Sigle15-ECD-His protein; Siglec15-His protein
- T1 sequence: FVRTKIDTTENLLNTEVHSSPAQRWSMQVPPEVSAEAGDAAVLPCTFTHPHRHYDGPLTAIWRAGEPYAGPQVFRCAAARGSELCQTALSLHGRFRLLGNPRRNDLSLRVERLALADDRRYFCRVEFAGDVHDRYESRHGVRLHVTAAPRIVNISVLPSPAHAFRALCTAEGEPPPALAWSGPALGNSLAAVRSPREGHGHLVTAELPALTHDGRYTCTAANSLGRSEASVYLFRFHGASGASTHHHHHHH
- Measurement Protocol: BLI (ForteBio), Siglec15-ECD-His on HIS1K sensor, antibody as analyte
- Description: In this experiment, a HIS1K biosensor was used to bind the ligand (Sigle15-ECD-His protein) followed by the analyte. Human Sigle15-ECD-His protein was diluted to 5 μg/ml and immobilized on the biosensor to a binding response threshold of 0.3 nm. […] The affinity data of the antigen and antibody were calculated by the analysis software regression according to the binding curve.
Recorded Metric: koff

Binder	Recorded Metric	Test Value
1-10E5-IgG1 human-mouse chimeric anti-Siglec15 antibody (antibody, V domains shown) VH: DVKLVESGGGLVKPGGSLKLSCVVSGLTFSRYTMSWVRQTPEKRLEWVATISSGGNSTYYPDSVKGRFTISRDDAKDTLYLQMSSLKSEDTAMYYCTNYGYFFDYWGQGTTLTVSS VL: DIQMTQSPASLSASVGETVTITCRASENIYSFLAWYQQKQGKSPQLLVYNAKTLAEGVPSRFSGSGSGTQFSLKINSLQPEDFGSYYCQHHYDRPLTFGAGTKLELK	koff	< 1e-07 s⁻¹
1-15D1-IgG1 human-mouse chimeric anti-Siglec15 antibody (antibody, V domains shown) VH: EVQLQQSGPELVKPGASVKMSCKASGYTFTTYVMHWVKQKPGQGLEWIGYINPYNDNTKYNEKFKGKATLTSDKSSSTAYMELSSLTSEDSAVYYCGSGYDAMDYWGQGTSVTVSS VL: DIQMAQSPASLSVSVGETVTITCRTSENIYSHLAWYQQKQGKSPQLLVYSATNLADGVPSRFNGSGSGTQYSLKINSLQSEDFGSYYCQHFWGTPWTFGGGTKLEIK	koff	< 1e-07 s⁻¹

Next, consider the following binder.
Could you tell me which koff is on file for 5G12-IgG1 control antibody (antibody, V domains shown) VH: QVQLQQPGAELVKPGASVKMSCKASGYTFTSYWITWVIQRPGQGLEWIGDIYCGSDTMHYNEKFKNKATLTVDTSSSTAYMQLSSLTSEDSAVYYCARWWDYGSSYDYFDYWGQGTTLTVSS VL: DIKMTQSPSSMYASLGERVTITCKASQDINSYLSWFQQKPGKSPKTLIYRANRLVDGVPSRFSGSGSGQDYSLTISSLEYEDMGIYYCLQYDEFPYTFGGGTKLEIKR ?
0.000178 s⁻¹

src = patent US20250326838A1
